molecular target: Protein RecA (Mycobacterium tuberculosis, UniProt P9WHJ3); assay: Fluorescence Cell-Free Homogeneous Dose Retest to Identify Inhibitors of RecA-Intein Splicing Activity. [Related pubchem assays (depositor defined):AID2097, AID2223, AID489010, AID492950]; assay type: functional
Calls of active or inactive are those of the source. No stated cut-off is given here; in the data, actives have a measured EC50 and inactives only a lower limit.
test.readout: EC50

In [3]: df
Out[3]:
                                   molecule    value_measured
0  N#CC1=C(N)Oc2[nH]nc(-c3ccncc3)c2C1c1ccsc1 (stereo unspecified)  3.27 µM (active)
1                c1cc2cn[nH]c2cc1NC1CCCCCC1  8.81 µM (active)
2             CCN(Cc1ccc(OC)c(F)c1)C(=O)CCl  5.37 µM (active)

For each of the molecules below, note its EC50.
1. O=C(Cc1cc(O)n[nH]1)N/N=C/c1c(F)cccc1Cl
2. CC(=O)NC1=C(Nc2ccc(N(C)C)cc2)C(=O)c2ccccc2C1=O
3. CCCOc1cccc(-c2nc3ccccc3c(=O)o2)c1
4. Cc1nn(-c2ccc(F)cc2)c(O)c1C(c1cccc(O)c1)c1c(C)[nH]n(-c2ccc(F)cc2)c1=O (stereo unspecified)
5. COC(=O)c1ccc2c(c1O)C(=O)c1ccccc1C2=O
6. CCn1c(-c2ccccc2)c(C(=O)CCl)c2ccccc21
7. CC(C)(C)OC(=O)N/N=C\c1ccc(OC(=O)c2ccco2)cc1
8. C=CCOc1ccccc1CN(C(=O)CCl)c1ccc2c(c1)OCO2

Outgoing:
1. 1.53 µM (active)
2. 46.6 µM (active)
3. 6.81 µM (active)
4. 0.856 µM (active)
5. 0.925 µM (active)
6. 1.05 µM (active)
7. 16.2 µM (active)
8. 0.481 µM (active)
